Recorded values, source patent US11154569B2.

Target: mitochondrial calcium uniporter (MCU) (Homo sapiens)
Sequence (Q8NE86 51-351): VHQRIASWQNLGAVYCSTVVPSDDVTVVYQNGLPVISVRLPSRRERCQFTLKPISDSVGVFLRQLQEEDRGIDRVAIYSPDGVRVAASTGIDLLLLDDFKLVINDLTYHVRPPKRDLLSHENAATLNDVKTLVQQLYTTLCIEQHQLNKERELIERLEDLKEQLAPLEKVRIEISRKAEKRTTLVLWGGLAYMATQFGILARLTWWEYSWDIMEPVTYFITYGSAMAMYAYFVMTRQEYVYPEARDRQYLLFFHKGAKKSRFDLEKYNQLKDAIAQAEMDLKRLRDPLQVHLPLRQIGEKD
Sequence (Q9H4I9 48-107 partner limits assumed): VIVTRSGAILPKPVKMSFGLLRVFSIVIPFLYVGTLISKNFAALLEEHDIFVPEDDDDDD
Assay: MCU-mediated Ca2+ uptake and ΔΨm in permeabilized HEK293T cells
Protocol: An equal number of IHEK293T (6×10^6 cells) were washed in Ca^2+ free PBS, pH 7.4, resuspended and permeabilized with 40 μg/ml digitonin in 1.5 ml of intracellular medium (ICM) composed of 120 mM KCl, 10 mM NaCl, 1 mM K—H2PO4, 20 mM HE PES-Tris, pH 7.2 and 2 μM thapsigargin to block the SERCA pump. All measurements were performed in the presence of 2 mM succinate. […] Fluorescence was monitored in a multi-wavelength excitation dual-wavelength emission fluorimeter. […]
parameter: pIC50
Answer as the number alone; pIC50 is minus log10 of concentration in mol/L.

Entry under test: N.N.N.N.N.N.N.N.[Cl-].[Cl-].[N-3].[Ru+4].[Ru+4] [C-2, [Ru2(μ-N)(NH3)8Cl2]Cl3] . Its pIC50 was 8.59

***
Per the record, N.N.N.N.N.N.N.N.O=C[O-].O=C[O-].[O-2].[Ru+3].[Ru+4] [Ru360, reference compound] has pIC50 of 7.52
